Listing: IC50 of selected molecules
Molecular target: Human recombinant FAP (Homo sapiens)
Assay: FRET-based FAP protease activity assay
Type: biochemical
Parameters: purchased R&D systems 3715-SE
Details: pIC50 Category (Activity), FRET-based FAP protease activity assay, recombinant human FAP, 37° C.
Numbered stars: 1 amine (or outer) side, 2 acyl side, 3 side chain; on linkers, the order of the positions; unused ones are H or OH. Bridge positions count the residues as written; N and C are the ends. Square brackets hold non-standard residues; d marks the D form. Peptide text beside a SMILES is read from it. * marks the point of attachment. TBMB(SCH2CH2NH-DOTA) = O=C(O)CN1CCN(CC(=O)O)CCN(CC(=O)NCCSCc2cc(C[*:1])cc(C[*:2])c2)CCN(CC(=O)O)CC1; Pro(trans-4-Ph) = O=C(O)[C@@H]1C[C@@H](c2ccccc2)CN1; mXylylene = c1cc(C[*:1])cc(C[*:2])c1; Nphe = O=C(O)CNCc1ccccc1; Hexanoyl = CCCCCC(=O)*

Recorded IC50, per entry:
Molecule	IC50
CCCCCC(=O)N[C@H]1CSCc2cc(CSCCNC(=O)CN3CCN(CC(=O)O)CCN(CC(=O)O)CCN(CC(=O)O)CC3)cc(c2)CSC[C@@H](C(N)=O)NC(=O)[C@H](Cc2ccccc2)NC(=O)[C@H](CCC(=O)O)NC(=O)[C@H]([C@@H](C)O)NC(=O)[C@@H]2CCCN2C(=O)[C@@H]2CCCN2C1=O [3BP-3653] (Hexanoyl-CPPTEFC-NH2; linker 1-7 via TBMB(SCH2CH2NH-DOTA))	< 0.01 µM
CCCCCC(=O)N[C@H]1CSCc2cccc(c2)CSC[C@@H](C(N)=O)NC(=O)[C@H](Cc2ccccc2)NC(=O)[C@H](CCC(=O)O)NC(=O)[C@H]([C@@H](C)O)NC(=O)[C@@H]2C[C@@H](c3ccccc3)CN2C(=O)[C@@H]2CCCN2C1=O [3BP-3353] (Hexanoyl-CP[Pro(trans-4-Ph)]TEFC-NH2; linker 1-7 via mXylylene)	0.1 to 0.794 µM

Now consider the entry below.
input: Can you look up the measured IC50 of CCCCCC(=O)N[C@H]1CSCc2cccc(c2)CSC[C@@H](C(N)=O)NC(=O)[C@H](Cc2ccccc2)NC(=O)[C@H](CCC(N)=O)NC(=O)[C@H]([C@@H](C)O)NC(=O)[C@@H]2CCCN2C(=O)CN(Cc2ccccc2)C1=O [3BP-3748] (Hexanoyl-C[Nphe]PTQFC-NH2; linker 1-7 via mXylylene) for me?
output: > 1 µM

====

Target: Human recombinant FAP (Homo sapiens, UniProt Q12884)
Sequence (Q12884 whole entry): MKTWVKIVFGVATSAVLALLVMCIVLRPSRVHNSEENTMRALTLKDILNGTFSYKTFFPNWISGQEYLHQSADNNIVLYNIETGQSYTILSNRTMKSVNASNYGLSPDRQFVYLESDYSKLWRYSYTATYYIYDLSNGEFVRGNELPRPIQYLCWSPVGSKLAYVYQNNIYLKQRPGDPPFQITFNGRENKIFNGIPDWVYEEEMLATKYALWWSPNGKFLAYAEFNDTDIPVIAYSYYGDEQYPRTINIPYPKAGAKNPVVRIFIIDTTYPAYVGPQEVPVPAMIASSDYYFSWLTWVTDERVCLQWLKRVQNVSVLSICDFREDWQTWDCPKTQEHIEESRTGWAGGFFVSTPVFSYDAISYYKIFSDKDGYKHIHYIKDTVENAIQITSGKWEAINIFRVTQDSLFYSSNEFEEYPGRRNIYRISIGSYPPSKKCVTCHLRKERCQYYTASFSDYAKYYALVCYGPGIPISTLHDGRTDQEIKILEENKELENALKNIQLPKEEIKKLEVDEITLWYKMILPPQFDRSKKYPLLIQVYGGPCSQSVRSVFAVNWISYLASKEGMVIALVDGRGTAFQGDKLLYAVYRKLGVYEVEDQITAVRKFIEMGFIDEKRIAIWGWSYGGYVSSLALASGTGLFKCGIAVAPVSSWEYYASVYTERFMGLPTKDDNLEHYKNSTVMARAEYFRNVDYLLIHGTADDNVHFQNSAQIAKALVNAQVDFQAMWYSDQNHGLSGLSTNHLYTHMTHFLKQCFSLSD
Experiment: FRET-based FAP protease activity assay
Assay type: biochemical
Design: purchased R&D systems 3715-SE
Details: pIC50 Category (activity), Recombinant human FAP
Numbered stars: 1 amine (or outer) side, 2 acyl side, 3 side chain; on linkers, the order of the positions; unused ones are H or OH. Bridge positions count the residues as written; N and C are the ends. Square brackets hold non-standard residues; d marks the D form. Peptide text beside a SMILES is read from it. * marks the point of attachment. X1 = NCCNCC(CNCCN)C(=O)N1CCN(CC(=O)NCCCOCCOCCOCCCN*)CC1; mXylylene = c1cc(C[*:1])cc(C[*:2])c1; Suc = O=C(CCC(=O)[*:2])[*:1]; Nle = CCCC[C@H](N)C(=O)O
Measured property: IC50

Compound	IC50
CCCC[C@H](NC(=O)CCC(=O)NCCCOCCOCCOCCCNC(=O)CCOCCOCCOCCOCCOCCOCCNC(=O)C(CNCCN)CNCCN)C(=O)N[C@H]1CSCc2cccc(c2)CSCC(C(=O)O)NC(=O)[C@H](Cc2ccccc2)NC(=O)[C@H](CCC(N)=O)NC(=O)[C@H]([C@@H](C)O)NC(=O)[C@@H]2CCCN2C(=O)[C@@H]2CCCN2C1=O (stereo partly drawn) [3BP-4552]	0.01 to 0.0794 µM

input: Can you look up the measured IC50 of CCCC[C@H](NC(=O)CCC(=O)NCCCOCCOCCOCCCNC(=O)CN1CCN(C(=O)C(CNCCN)CNCCN)CC1)C(=O)N[C@H]1CSCc2cncc(c2)CSC[C@@H](C(=O)NCCC(=O)O)NC(=O)[C@H](Cc2ccccc2)NC(=O)[C@H](CCC(N)=O)NC(=O)[C@H]([C@@H](C)O)NC(=O)[C@@H]2CCCN2C(=O)[C@@H]2CCCN2C1=O [3BP-4961] for me?
output: < 0.01 µM

input: # iterate: CCCC[C@H](NC(=O)CCC(=O)NCCCOCCOCCOCCCNC(=O)CN1CCN(C(=O)C(CNCCN)CNCCN)CC1)C(=O)N[C@H]1CSCc2cccc(c2)CSC[C@@H](C(=O)N[C@@H](CC(=O)O)C(=O)O)NC(=O)[C@H](Cc2ccccc2)NC(=O)[C@H](CCC(=O)O)NC(=O)[C@H]([C@@H](C)O)NC(=O)[C@@H]2CCCN2C(=O)[C@@H]2CCCN2C1=O [3BP-4785] ({X1-Suc}-[Nle]CPPTEFCD-OH; linker 2-8 via mXylylene)
output: < 0.01 µM

Reference source for all entries: patent US20230212549A1
